# measurement_notes: Solubility test in biological media (dynamic solubility in FaSSIF, FeSSIF, FaSSGF; pH of the 24-hour supernatant; XRPD of remaining solid)
# Format: physicochemical
# test_settings: FeSSIF, pH 5.0-5.1, 37°C, 2 h; read-out: Solubility (mg/mL) 2h
Structures can show the parent of a compound that is named as a salt.
measurement_kind: solubility at 2 h (mg/mL)
The figure you give is taken to be in mg/mL; do not add the unit.

Per the record, O=C(Nc1ccc(C(=O)N2CC[C@@H]3CCN[C@H]3c3cc(Cl)ccc32)cn1)c1ccccc1C(F)(F)F [crystal form C of fumarate] has solubility at 2 h of 0.74

====

# measurement_notes: Solubility test in biological media (dynamic solubility in FaSSIF, FeSSIF, FaSSGF; pH of the 24-hour supernatant; XRPD of remaining solid)
# Assay type: physicochemical
# test_settings: FaSSGF, pH 1.6, 37°C, 0.5 h; read-out: Solubility (mg/mL) 0.5 h
Where a name gives a salt, the structure may show the parent alone.
measurement_kind: solubility at 0.5 h (mg/mL)
The figure you give is taken to be in mg/mL; do not add the unit.

Per the record, O=C(Nc1ccc(C(=O)N2CC[C@@H]3CCN[C@H]3c3cc(Cl)ccc32)cn1)c1ccccc1C(F)(F)F [crystal form C of fumarate] has solubility at 0.5 h of 0.65

====

# measurement_notes: Solubility test in biological media (dynamic solubility in FaSSIF, FeSSIF, FaSSGF; pH of the 24-hour supernatant; XRPD of remaining solid)
# Format: physicochemical
# test_settings: FaSSGF, pH 1.6, 37°C, 2 h; read-out: Solubility (mg/mL) 2h
Counter-ions that a name gives are not always drawn.
measurement_kind: solubility at 2 h (mg/mL)
The figure you give is taken to be in mg/mL; do not add the unit.

Per the record, O=C(Nc1ccc(C(=O)N2CC[C@@H]3CCN[C@H]3c3cc(Cl)ccc32)cn1)c1ccccc1C(F)(F)F [crystal form C of fumarate] has solubility at 2 h of 0.7

====

# measurement_notes: Solubility test in biological media (dynamic solubility in FaSSIF, FeSSIF, FaSSGF; pH of the 24-hour supernatant; XRPD of remaining solid)
# Format: physicochemical
# test_settings: FeSSIF, pH 5.0-5.1, 37°C, 0.5 h; read-out: Solubility (mg/mL) 0.5 h
Where a name gives a salt, the structure may show the parent alone.
measurement_kind: solubility at 0.5 h (mg/mL)
The figure you give is taken to be in mg/mL; do not add the unit.

Per the record, O=C(Nc1ccc(C(=O)N2CC[C@@H]3CCN[C@H]3c3cc(Cl)ccc32)cn1)c1ccccc1C(F)(F)F [crystal form C of fumarate] has solubility at 0.5 h of 0.66

====

# measurement_notes: Solubility test in biological media (dynamic solubility in FaSSIF, FeSSIF, FaSSGF; pH of the 24-hour supernatant; XRPD of remaining solid)
# Type: physicochemical
# test_settings: water, 37°C, 24 h; read-out: Solubility (mg/mL) 24 h
measurement_kind: solubility at 24 h (mg/mL)
The figure you give is taken to be in mg/mL; do not add the unit.

Per the record, O=C(Nc1ccc(C(=O)N2CC[C@@H]3CCN[C@H]3c3cc(Cl)ccc32)cn1)c1ccccc1C(F)(F)F [crystal form N] has solubility at 24 h of 0.004

====

# measurement_notes: Solubility test in biological media (dynamic solubility in FaSSIF, FeSSIF, FaSSGF; pH of the 24-hour supernatant; XRPD of remaining solid)
# Assay type: physicochemical
# test_settings: water, 37°C, 0.5 h; read-out: Solubility (mg/mL) 0.5 h
measurement_kind: solubility at 0.5 h (mg/mL)
The figure you give is taken to be in mg/mL; do not add the unit.

Per the record, O=C(Nc1ccc(C(=O)N2CC[C@@H]3CCN[C@H]3c3cc(Cl)ccc32)cn1)c1ccccc1C(F)(F)F [crystal form N] has solubility at 0.5 h of 0.004
